experiment: NCI Yeast Anticancer Drug Screen. Data for the mlh1 rad18 strain (AID 175); conditions: S. cerevisiae mlh1 rad18 strain growth inhibition; at 50.0 µM; hits give high values
The panel holds about 79,000 compounds, 15% with a hit somewhere; the sample as a whole holds those more often.

{"compound": "COc1cc(Cl)ccc1NC(=O)Oc1ccc2ccccc2c1", "growth inhibition, %": 9.4}
{"compound": "CC(C)(C)C(=O)Oc1ccc(/C=C/C(=O)c2ccc(OC(=O)C(C)(C)C)cc2)cc1", "growth inhibition, %": -24.4}
{"compound": "O=C1c2ccccc2C(=O)c2c1c([N+](=O)[O-])c1c(c2[N+](=O)[O-])OCO1", "growth inhibition, %": 31.2}
{"compound": "CC1C(O)CCC2C1(C)CCC1C2(C)CCC2(C)C3CC(C)(C)CCC3(C)CCC12C (centres undefined)", "growth inhibition, %": -6.75}
{"compound": "Cc1cc2c(cc1C)[n+](=O)c(C(=O)CC(=O)C(=O)Nc1ccccc1C(C)C)c(C)n2[O-]", "growth inhibition, %": -33.6}
{"compound": "COc1ccc(C)cc1NC(=O)/C=C/c1ccccc1", "growth inhibition, %": -7.65}
{"compound": "O=C(C=C1CCCCC1)c1ccccc1", "growth inhibition, %": 5.25}
{"compound": "O=C1c2cc([N+](=O)[O-])ccc2-c2c(Cl)cc(NC(=O)C(F)(F)F)cc21", "growth inhibition, %": -2.55}
{"compound": "O=C(NNC(=S)Nc1ccc(S(=O)(=O)N2CCCCC2)cc1)c1ccncc1", "growth inhibition, %": 46}
{"compound": "COC1=C(C(=O)c2ccc(OC)c(OC)c2)COC1=O", "growth inhibition, %": 7.15}
{"compound": "Nc1ccc2ccc3ccccc3c2c1", "growth inhibition, %": 44.2}
{"compound": "CC1=C(/C=C/C(C)=C\\c2cc(C)cc(=O)o2)C(C)(C)CCC1", "growth inhibition, %": 16.9}
{"compound": "CNC(=O)NC(c1ccc2c(c1)OCO2)c1cc2c(cc1O)OCO2 (centres undefined)", "growth inhibition, %": 24.6}
{"compound": "CC(=O)CC(=O)Nc1cccc(C)c1C", "growth inhibition, %": -5.6}
{"compound": "SCCNCc1ccccn1", "growth inhibition, %": -3.65}
{"compound": "O=S(=O)(Nc1cccc(F)c1)c1ccc(F)cc1", "growth inhibition, %": 11.6}
{"compound": "CCCCC(CC)COB(OCC(CC)CCCC)OCC(CC)CCCC (centres undefined)", "growth inhibition, %": -24.3}
{"compound": "C/C(CC(=O)Nc1cccc([N+](=O)[O-])c1)=N\\NC(=O)CC#N", "growth inhibition, %": 2.35}
{"compound": "CC1(C)C[C@H](OC2CCCCO2)[C@H]2O[C@@]2(C)C1 (some centres undefined)", "growth inhibition, %": 3.95}
{"compound": "Nc1ccc(C(=O)Nc2cccc(OCc3nc(N)nc(N)c3-c3ccc(Cl)cc3)c2)cc1", "growth inhibition, %": 13.2}
{"compound": "COC(=O)/C(C#N)=C1\\NC(=O)c2ccccc21", "growth inhibition, %": 26}
{"compound": "COc1ccc(/C=C2\\NC(=S)N(/C=C3\\C(=O)Oc4ccccc4C3=O)C2=O)cc1OC", "growth inhibition, %": 6.4}
{"compound": "COC(=O)C1CCC=CC1OC(C)=O (centres undefined)", "growth inhibition, %": 3.2}
{"compound": "C/C=C(/C)C1(O)CCCCC1O (centres undefined)", "growth inhibition, %": -11.3}

This collection of values is drawn from PubChem BioAssay (NCI).
